Let's look at some molecules and their measured Human Primary Hepatocyte Editing % 2500.
Tested on: PCSK9 gene
Test: PCSK9 gRNA/SpCas9 editing in primary human hepatocytes (Tables 2, 4)
Type: cell-based
Settings: 2500 ng/RNA/mL; SpCas9 mRNA MS002 1:1 by weight
In the oligonucleotide strings, read from the 5' end, every base follows the letter of its sugar. An asterisk marks phosphorothioate; unmarked linkages are phosphodiester. Other units and linkages are bracketed, terminal groups are in braces. A string of capitals states the bases alone. m = 2'-O-methyl; r = 2'-OH (RNA)
Provide only the numeric value, understood in %.

GA222: PCSK9 gRNA; protospacer TGGCAGGGGTGGTCAGCGGC (SEQ ID NO: 216) (nucleic acid, sugars from the 5' end m3 r94 m3, linkages s3 o93 s3 (s phosphorothioate, o phosphodiester), T or U not given here) guide: UGGCAGGGGUGGUCAGCGGCGUUUUAGAGCUAGAAAUAGCAAGUUAAAAUAAGGCUAGUCCGUUAUCAACUUGAAAAAGUGGCACCGAGUCGGUGCUUUU: 2.04
GA162: PCSK9 gRNA; protospacer GGACGGCGACTACGAGGAGC (SEQ ID NO: 156) (nucleic acid) guide: mG*mG*mA*rCrGrGrCrGrArCrUrArCrGrArGrGrArGrCrGrUrUrUrUrArGrArGrCrUrArGrArArArUrArGrCrArArGrUrUrArArArArUrArArGrGrCrUrArGrUrCrCrGrUrUrArUrCrArArCrUrUrGrArArArArArGrUrGrGrCrArCrCrGrArGrUrCrGrGrUrGrCrU*mU*mU*mU: 42.8

Continue with the molecule presented below.
Problem: Please look up its Human Primary Hepatocyte Editing % 2500: GA174: PCSK9 gRNA; protospacer GGATCTTGGTGAGGTATCCC (SEQ ID NO: 168) (nucleic acid, sugars from the 5' end m3 r94 m3, linkages s3 o93 s3 (s phosphorothioate, o phosphodiester), T or U not given here) guide: GGAUCUUGGUGAGGUAUCCCGUUUUAGAGCUAGAAAUAGCAAGUUAAAAUAAGGCUAGUCCGUUAUCAACUUGAAAAAGUGGCACCGAGUCGGUGCUUUU
Solution: 14.74
